This collection of values is drawn from patent US20250027068.

Experimental System: pooled human IgG
Assay Readout: Enzyme Activity Endpoint Assay: IgG (ng/µL)
Give the value in ng/µL but do not write ng/µL after it.

Recorded Enzyme Activity Endpoint Assay: IgG of PRT-287 (protein) MVTSVWTKGVTPPAKFTQGEDVFHAPYVANQGWYDITKEFNGKDDLLCGAATAGNMLHWWFDQNKEKIEAYLKKHPDKQKIMFGDQELLDVRKVINTKGDQTNSELFNYFRDKAFPNLSARRIGVMPDLVLDMFINGYYLNVYKTQTTDVNRTYQEKDRRGGIFDAVFTRGDQSKLLTSRHDFKEKNLKEISDLIKKELTEGKALGLSHTYANVRIGHVINLWGADFDSNGNLKAIYVTDSDSNASIGMKKYGVGVNSAGKVAISAKEIKEDNIGAQVLGLFTLSTGQDSWNQTN , please.
0
